quantity-measured: pKi
# reply with the number alone; pKi is -log10 of concentration in mol/L

Ask: Requested read-out pKi, target or system cAMP and cAMP-inhibited cGMP 3',5'-cyclic phosphodiesterase 10A (Homo sapiens), entry Cc1nc(N2CC(c3nc4ccccc4n3C)C2)cc(-n2nc(C)nc2C2CCOCC2)n1
Reply: 8.66
